FYI, the data here is from the supplement of paper PMC10567573.

B1: ZMYND11 (parent)
chain: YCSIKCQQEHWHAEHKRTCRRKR

variants of: B1; test: protein stability index of a GFP-peptide fusion (GPS, HEK-293T) (PSI 1-6); higher = more stable; conditions: c terminus: native;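 also: lentivirally expressed fusions sorted by FACS into six bins by GFP to DsRed ratio, PSI derived from sequencing read proportions per bin multiplied by bin number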
Lab note: anything with protein stability index at or over 2 counts as Fulfilled; the rest go in Not fulfilled.

K22W :: Fulfilled
T18S :: Fulfilled
E9Y :: Not fulfilled
H15A :: Not fulfilled
Y1I :: Fulfilled
H10C :: Not fulfilled
C2A :: Fulfilled
E9N :: Not fulfilled
I4W :: Not fulfilled
K5L :: Fulfilled
C6K :: Fulfilled
